This section presents compounds with their documented melting point values.

- compound: "CSc1ccc(-c2nn(Cc3ccc(F)cc3F)c(=O)cc2-c2ccc(Cl)cc2)cc1"
  melting point: "157 to 158 °C"
- compound: "CC(C)COC1OC(CO)C(O)C(O)C1(O)N(C(=O)N(CCCl)N=O)C(C)C (stereo unspecified)"
  melting point: "83 to 85 °C"
- compound: "C=C(C)COc1cc(C)c(NC(C)=O)cc1C"
  melting point: "128 to 132 °C"
- compound: "CCCCCCCCCCCCCCOC(=O)CCC(=O)CCC(=O)OCC"
  melting point: "43 °C"
- compound: "COC(=O)C1CCC(c2csc(NC(=N)N)n2)C1 (stereo unspecified)"
  melting point: "124 to 126 °C"
- compound: "Cc1cc2nc(N)[nH]c(=O)c2[nH]1"
  melting point: "252 to 254 °C"

Then this compound:
Ask: For the compound O=CNCC(O)(Cn1cncn1)c1ccc(Cl)cc1Cl (stereo unspecified) , what melting point is on record?
Reply: 157 °C

###

outcome-measure: melting point

- compound: "O=C(O)Cc1nn(Cc2nc3cccc(Cl)c3s2)c(=O)c2ccccc12"
  melting point: "168 °C"
- compound: "CC(C)(C)c1ccc(CN=C2SCN(c3ccccc3)C(=O)N2CC(F)(F)F)cc1"
  melting point: "90 to 91.5 °C"
- compound: "Cc1nc2ccc3c(c2o1)OC(CN1CC=C(c2ccccc2)CC1)CO3 (configuration not stated)"
  melting point: "170 to 173 °C"
- compound: "CCCc1c(C(=O)C(C)C)c2ccc(C(=O)O)cc2n1Cc1ccccc1C"
  melting point: "186 to 188 °C"
- compound: "O=S1(=O)c2ccccc2N(c2cc(F)cc(F)c2)c2ccccc21"
  melting point: "255 to 258 °C"

Here is the next item to consider.
Ask: Fill in the blank: the reported melting point of "S=C1CN=C(c2ccc(Cl)cc2)c2cc(I)ccc2N1" is ____.
Reply: 260 to 262 °C

###

melting point for assorted compounds

Below: 3 compounds and their reported melting point.
- compound: "CCOc1cccc2cc(S(=O)(=O)Nc3ccc(F)c(N)c3)c(=O)oc12"
  melting point: "160 to 162 °C"
- compound: "Cc1ccc(-c2c(CNC(=O)OC(C)(C)C)n(CC(C)C)c(=O)c3ccc(O)cc23)cc1"
  melting point: "233 to 234 °C"
- compound: "COc1ccc(CC(C)=O)cc1S(=O)(=O)Cl"
  melting point: "80 to 81 °C"

Ask: Using the record for "Cn1cc(-c2ccc3nnc(C(F)(F)c4ccc5ncccc5c4)n3n2)cn1" , report its melting point.
Reply: 200 °C

Ask: Using the record for "NC(=C[N+](=O)[O-])NC1CCCC1" , report its melting point.
Reply: 117 to 124 °C

Ask: Returns the measured melting point for the input compound. Input: "O=C(Nc1ccc(C(F)(F)F)cc1)Nc1ccc2[nH]c(C(F)(F)F)nc2c1"
Reply: 223 to 228 °C

Ask: What does the data say about its melting point? Entry: COc1ccc(C(C)C)cc1-c1cc(C(=O)NC2CCN(C(=O)OC(C)(C)C)C2)c(OCc2ccccc2)cc1OCc1ccccc1 (stereo not drawn)
Reply: 151 to 154 °C

Ask: Which measured melting point value corresponds to "CCC(=O)c1ccc2c(c1)N(C(C)=O)c1ccccc1S2" ?
Reply: 146 to 147 °C

Ask: Data request, read-out melting point, for "COC(=O)c1cccc(Nc2nccc(-c3sc(N)nc3-c3ccccc3)n2)c1"
Reply: 223 to 225 °C
